# System: HOP-62 NSCLC
# assay text: NCI tumour cell line growth inhibition, 48 h

{"compound": "OCC(CO)CC1COc2ccccc2O1 (stereo unspecified)", "TGI": "> 10 µM"}
{"compound": "N#Cc1nc(Cc2cccs2)oc1N", "TGI": "> 100 µM"}
{"compound": "Cc1ccc2c(=O)c3c(O)c4c(cc3n(C)c2c1)OC(C)(C)C=C4", "TGI": "> 10 µM"}
{"compound": "Clc1cccc(Cl)c1C1ON=C(c2ccccc2)N1C12CC3CC(CC(C3)C1)C2 (stereo unspecified)", "TGI": "> 100 µM"}
{"compound": "Cc1cn(C2CC(O)C(Cn3cc(Cn4nc(Br)c(=O)[nH]c4=O)nn3)O2)c(=O)[nH]c1=O (stereo unspecified)", "TGI": "> 100 µM"}
{"compound": "COc1ccc(C2=C(N)c3ccccc3C2=O)cc1", "TGI": "> 100 µM"}
{"compound": "NC(=S)NS(=O)(=O)c1ccc(Cl)cc1Cl", "TGI": "> 100 µM"}
{"compound": "Cn1c(=O)n2n(c1=O)C1C(=CC2)C2C=CC1n1c(=O)n(C)c(=O)n12 (stereo unspecified)", "TGI": "> 100 µM"}
{"compound": "COc1ccccc1OCC(COC(=O)Nc1ccc(C)cc1)OC(=O)Nc1ccc(C)cc1 (stereo unspecified)", "TGI": "> 100 µM"}
{"compound": "O=C(N/N=C\\c1cc(Cl)ccc1O)N/N=C/c1cc(Cl)ccc1O", "TGI": "> 100 µM"}
{"compound": "CCOC(=O)c1c(C)n(CCN2CCN(C)CC2)c2ccc(OC)cc12", "TGI": "> 100 µM"}

###

# Tested on: UACC-62 melanoma
# assay text: NCI tumour cell line growth inhibition, 48 h

{"compound": "Cc1ccc(Oc2cc(C)ccc2P(=O)(O)O)cc1", "TGI": "> 100 µM"}
{"compound": "Cc1ccc(C)c(NC(=O)CCc2n[nH]c(=S)o2)c1", "TGI": "> 100 µM"}
{"compound": "COc1ccc(N2C(=O)CSC2c2cc(OC)c(OC)c(OC)c2)cc1 (stereo not drawn)", "TGI": "20.9 µM"}
{"compound": "Cc1cc(Br)cc(C)c1NC(=O)C(=O)C(C(=O)c1ccc(Cl)c(Cl)c1)C1OC(=O)c2ccccc21 (stereo not drawn)", "TGI": "> 100 µM"}
{"compound": "S=C1OC2C3C4CC5C3C(O1)C1C5C4C21 (stereo not drawn)", "TGI": "> 100 µM"}
{"compound": "COCCOC(=O)CCn1cc(F)c(=O)[nH]c1=O", "TGI": "> 150 µg/mL"}
{"compound": "CCCCCCCCSC(SCCCCCCCC)=C1C(=O)N(c2ccccc2)N=C1C", "TGI": "> 100 µM"}
{"compound": "O=C(NC(Cc1c[nH]c2ccccc12)C(=O)O)/C(=C/c1ccccc1)NC(=O)c1ccccc1 (stereo not drawn)", "TGI": "> 100 µM"}
{"compound": "CCOc1cc(C=Nc2ccc(Oc3ccc(Cl)cc3)c(Cl)c2)ccc1O", "TGI": "50.9 µM"}
{"compound": "COc1cc(/C=C2\\N=C(c3ccccc3)N(c3ccc(C(=O)c4ccccc4)cc3N3C(=O)/C(=C/c4cc(OC)c(OC)c(OC)c4)N=C3c3ccccc3)C2=O)cc(OC)c1OC", "TGI": "24.7 µM"}
{"compound": "CC(=O)Nc1oc(C)nc1C#N", "TGI": "> 100 µM"}
{"compound": "CC(C)c1cc2c(O)c(c1)Cc1cc(C(C)C)cc(c1O)Cc1cc(C(C)C)cc(c1O)Cc1cc(C(C)C)cc(c1O)Cc1cc(C(C)C)cc(c1O)Cc1cc(C(C)C)cc(c1O)C2", "TGI": "> 100 µM"}
{"compound": "Cn1cc(/C=C2\\C(=O)Nc3cccnc32)c2ccccc21", "TGI": "> 25 µM"}

###

# Tested on: MOLT-4 leukemia
# assay text: NCI tumour cell line growth inhibition, 48 h
Measured TGI by item

{"molecule": "Cc1ccc(N=Nc2cc(=O)[nH]c(=O)[nH]2)cc1C", "TGI": "> 100 µM"}
{"molecule": "Nc1ncc(Cc2nn3c(COc4ccc(Cl)cc4)nnc3s2)s1", "TGI": "> 100 µM"}
{"molecule": "C1CN(C23OC4(N5CCOCC5)C5C6CC(C7C6C4C72)C53)CCO1 (stereo not drawn)", "TGI": "> 100 µM"}

###

Measured TGI by item
# System: HL-60(TB) leukemia
# assay text: NCI tumour cell line growth inhibition, 48 h

{"compound": "CC12CC(=O)NN=C1c1ccccc1C2 (configuration not stated)", "TGI": "> 100 µM"}
{"compound": "CCCCC[C@@H]1OC(=O)[C@@]2(CC3c4ccccc4C2c2ccccc23)[C@H]1C(=O)OC", "TGI": "33.1 µM"}
{"compound": "Cc1ccc(NC(=O)NC23CC4CC(CC(F)(C4)C2)C3)cc1", "TGI": "> 100 µM"}
{"compound": "Cn1cc(/C=C2\\C(=O)Nc3cccnc32)c2ccccc21", "TGI": "> 25 µM"}
{"compound": "Cc1ccc(S(=O)(=O)ON=C2CC(c3ccccc3)N(C)C(c3ccccc3)C2)cc1 (configuration not stated)", "TGI": "> 100 µM"}
{"compound": "CC(=O)Nc1oc(C)nc1C#N", "TGI": "> 100 µM"}
{"compound": "NC(=S)NS(=O)(=O)c1ccc(Cl)cc1Cl", "TGI": "> 100 µM"}

###

Measured TGI by item
# Test system: HCC-2998 colon
# assay text: NCI tumour cell line growth inhibition, 48 h
parameter measured: TGI

{"molecule": "CCn1cc(C2NC(=O)c3cc(F)ccc3N2)c2cccc(Cl)c21 (configuration not stated)", "experimental value": "> 25.5 µM"}
{"molecule": "Nc1nc(Cl)cc(NCCCCCCCCCCNc2cc(Cl)nc(N)n2)n1", "experimental value": "> 100 µM"}
{"molecule": "C#Cc1ccccc1C(=O)OC", "experimental value": "> 100 µM"}
{"molecule": "CC(=O)Nc1[nH]c(=O)[nH]c(=O)c1N(C(C)=O)C(C)=O", "experimental value": "> 100 µM"}
{"molecule": "CCCCC[C@@H]1OC(=O)[C@@]2(CC3c4ccccc4C2c2ccccc23)[C@H]1C(=O)OC", "experimental value": "> 100 µM"}
{"molecule": "CC(Cl)CC(=O)Nc1ccc2c(c1)oc(=O)c1cc(NC(=O)CC(C)Cl)ccc12 (configuration not stated)", "experimental value": "> 100 µM"}
{"molecule": "COc1cc(SC)ccc1C(=O)N1CCCC(C)C1 (configuration not stated)", "experimental value": "> 100 µM"}
{"molecule": "COCCn1cc(-c2csc(-c3c[nH]c4ccc(F)cc34)n2)c2cccnc21", "experimental value": "> 100 µM"}
{"molecule": "C[C@@H]1CC[C@H]2C(CN3CCN(CC4=C(C(F)(F)F)O[C@@H]5O[C@@]6(C)CC[C@H]7[C@H](C)CC[C@@H]4[C@@]57OO6)CC3)=C(C(F)(F)F)O[C@@H]3O[C@@]4(C)CC[C@@H]1[C@]32OO4", "experimental value": "> 100 µM"}
{"molecule": "Cc1ccc(C)c(NC(=O)CCc2n[nH]c(=S)o2)c1", "experimental value": "> 100 µM"}
{"molecule": "CCOC(=O)c1cc2cc([N+](=O)[O-])ccc2oc1=O", "experimental value": "> 100 µM"}
{"molecule": "COC(=O)C1CC(C=O)=C(SC)N1 (configuration not stated)", "experimental value": "> 50 µM"}

###

# Test system: RXF-631 renal
# assay text: NCI tumour cell line growth inhibition, 48 h

{"compound": "COc1ccc2c(c1)[n+]([O-])c(-c1ccc(Cl)c(Cl)c1)c(N)[n+]2[O-]", "TGI": "82.3 µM"}
{"compound": "OCC1CC2CC1C1(C2)OCCO1 (stereo not drawn)", "TGI": "> 100 µM"}
{"compound": "C/C(=N\\NC(=S)Nc1ccc([N+](=O)[O-])cc1S(=O)(=O)O)c1ccccn1", "TGI": "> 100 µM"}

###

# Tested on: SN12C renal
# assay text: NCI tumour cell line growth inhibition, 48 h
Measured TGI by item
parameter measured: TGI

{"compound": "O=C(/C=C/c1cccs1)Nc1ncc(Cc2ccccc2F)s1", "experimental value": "> 100 µM"}
{"compound": "O=C(O)CCN1C(=O)/C(=C/C(Cl)=C/c2ccccc2)SC1=S", "experimental value": "9.41 µM"}
{"compound": "CN(NC(=O)/C(=C/C=C/c1ccccc1)NC(=O)c1ccccc1)C1=C(Cl)C(=O)[N+](c2ccccc2)=CC1", "experimental value": "66 µM"}
{"compound": "COc1cc2c(cc1OCc1ccccc1)NC(=O)[C@@H]1C[C@@H](O)CN1C2=O", "experimental value": "> 100 µM"}
{"compound": "Cc1ccc(C)c2sc3cc(=O)ccc-3nc12", "experimental value": "> 100 µM"}
{"compound": "Clc1cccc(Cl)c1C1ON=C(c2ccccc2)N1C12CC3CC(CC(C3)C1)C2 (stereo not drawn)", "experimental value": "> 100 µM"}
{"compound": "O=[N+]([O-])C(=C(c1ccccc1)c1ccccc1)[N+](=O)[O-]", "experimental value": "30.9 µM"}
{"compound": "COc1ccc(C2=C(N)c3ccccc3C2=O)cc1", "experimental value": "> 100 µM"}
{"compound": "CN1C=CN(Cc2ccc(-c3ccccn3)nc2)[CH-]1.CN1C=CN(Cc2ccc(-c3ccccn3)nc2)[CH-]1.[Au+3]", "experimental value": "> 45 µM"}
{"compound": "OCC(CO)CC1COc2ccccc2O1 (stereo not drawn)", "experimental value": "> 10 µM"}
{"compound": "COc1ccc(/C(Cl)=C(\\C=O)c2ccc(Cl)cc2)cc1", "experimental value": "13.6 µM"}
{"compound": "Cc1nc(Nc2ccc([N+](=O)[O-])cc2)sc1C(=O)/C=C/c1ccc(N(C)C)cc1", "experimental value": "> 100 µM"}
{"compound": "CC[N+]1(C)CCC(O)(/C=C/c2ccc(Cl)c(Cl)c2)C(C(=O)/C=C/c2ccc(Cl)c(Cl)c2)C1 (stereo not drawn)", "experimental value": "3.61 µM"}
{"compound": "Cc1nc(-c2ccc(Cl)cc2)cn2c1nc1ccccc12", "experimental value": "> 100 µM"}
{"compound": "Cc1cc(C#Cc2ccccc2)ccc1-n1c(/C=C/c2ccc(O)cc2)nc2ccccc2c1=O", "experimental value": "38.3 µM"}
{"compound": "COc1ccc2c3c([nH]c2c1)[C@H]1C[C@H]2[C@H](C[C@@H](O)[C@H](OC)[C@H]2C(=O)O)CN1CC3", "experimental value": "> 100 µM"}
{"compound": "C=C1C(=O)OC2C1CC1OC2C(C)CCC/C(C)=C\\CCC1(C)O (stereo not drawn)", "experimental value": "62.5 µM"}
{"compound": "CC(=O)N/N=C1\\NN(C(C)=O)C2(S1)C(=O)Nc1ccccc12 (stereo not drawn)", "experimental value": "> 100 µM"}
{"compound": "C=C1C(=O)O[C@H]2[C@@H](O)[C@H](C)CCC/C(C)=C/CC[C@@]3(C)O[C@@H]3C[C@@H]12", "experimental value": "22.6 µM"}
{"compound": "CCCCCCCCCCCOCCC1C(C(C)OCCN2CCCC2)OC2OC(C)(C)OC21 (stereo not drawn)", "experimental value": "7.31 µM"}
{"compound": "Cc1nc2ccccc2n1CCc1nc2ccccc2[nH]1", "experimental value": "> 100 µM"}
{"compound": "C=C1C(=O)C23C(CC(OC(C)=O)C1[C@@H]2OC(C)=O)C1(C)C(OC(C)=O)CCC(C)(C)C1C[C@@H]3OC(C)=O (stereo partly drawn)", "experimental value": "2.8 µM"}
{"compound": "CCC[CH2][Ge]([CH2]CCC)([CH2]CCC)[O]C(=O)CCl", "experimental value": "19.3 µM"}
{"compound": "O=C1CCCC2COc3ccc(O)c1c32 (stereo not drawn)", "experimental value": "> 100 µM"}
{"compound": "COS(=O)CCOC(=O)c1ccccc1SSc1ccccc1C(=O)OCCS(=O)OC (stereo not drawn)", "experimental value": "85.9 µM"}
{"compound": "O=C(O)C1C2CC3CC2CC31 (stereo not drawn)", "experimental value": "> 100 µM"}
{"compound": "COc1ccc(-c2nc(N)nc(-c3cc(C)ccc3O)c2Cl)cc1", "experimental value": "> 100 µM"}
{"compound": "O=C(NC(Cc1c[nH]c2ccccc12)C(=O)O)/C(=C/c1ccccc1)NC(=O)c1ccccc1 (stereo not drawn)", "experimental value": "> 100 µM"}
{"compound": "C[Si](C)(C)[C@@]1([Se]c2ccccc2)CC[C@@H]1C(=O)c1ccccc1", "experimental value": "> 100 µM"}
{"compound": "Cc1cc(I)cc(CN(C)CCCCN2CCCC2)c1O", "experimental value": "> 100 µM"}
{"compound": "CNc1ccc([N+](=O)[O-])cc1C(=O)N1CCC[C@H]1CO", "experimental value": "> 100 µM"}
{"compound": "C#Cc1ccccc1C(=O)OC", "experimental value": "> 100 µM"}
{"compound": "Cc1cccc(-c2cc(=O)c3c(C)ccnc3[nH]2)c1", "experimental value": "> 100 µM"}
